Data provenance: patent US9504684B2

# key: entry, value: Hheps CL
Tested on: human hepatocytes
Assay: Human Hepatocyte Stability Assay
Type: in vitro ADME
Conditions: comparison table of Example 12; head prints "(units)", L/hr/kg per Example 11

- MOLECULE: "Nc1cncc(-c2cn3ccnc3c(Nc3ccc(N4CCO[C@@H](CO)C4)cc3)n2)n1"
  Hheps CL / mL/min/kg: 1.5
- MOLECULE: "Cc1ncc(-c2cn3ccnc3c(Nc3ccc(N4CCN(C5COC5)CC4)cc3)n2)nc1N"
  Hheps CL / mL/min/kg: 2
- MOLECULE: "Cc1ncc(-c2cn3ccnc3c(Nc3ccc(N4CCN(C5COC5)CC4)c(OCCO)c3)n2)nc1N"
  Hheps CL / mL/min/kg: 0.83
- MOLECULE: "Nc1cncc(-c2cn3ccnc3c(Nc3ccc(N4CCN(C5COC5)CC4)cc3)n2)n1"
  Hheps CL / mL/min/kg: 0.917
- MOLECULE: "COc1ccc(Nc2nc(-c3cccc(N)c3)cn3ccnc23)cc1OC [reference compound]"
  Hheps CL / mL/min/kg: 4
- MOLECULE: "Nc1cncc(-c2cn3ccnc3c(Nc3ccc(N4CCN(C5COC5)CC4)c(OCCO)c3)n2)n1"
  Hheps CL / mL/min/kg: 1.2
- MOLECULE: "Cc1ncc(-c2cn3ccnc3c(Nc3ccc(N4CCOCC4)cc3)n2)cc1N [reference compound]"
  Hheps CL / mL/min/kg: 13.3

---

System: human hepatocytes
Experiment: Human Hepatocyte Stability Assay
Type: in vitro ADME
Details: predicted hepatocyte clearance, human hepatocytes, 1 μM compound
Method: The human […] stability of the compounds as predicted hepatocyte clearance in L/hr/kg was assessed. […] The loss of parent compound was determined using LC-MS methods against a standard curve.

- MOLECULAR_STRING: "Cc1c(-c2cncc(N)n2)nc(Nc2ccc(N3CCN(C4COC4)CC3)cc2)c2nccn12"
  Hheps CL, mL/min/kg: 1.3
- MOLECULAR_STRING: "Cc1ncc(-c2cn3ccnc3c(Nc3ccc(N4CCN(C5COC5)CC4)c(OCCO)c3)n2)nc1N"
  Hheps CL, mL/min/kg: 0.83
- MOLECULAR_STRING: "Nc1cncc(-c2cn3ccnc3c(Nc3ccc(N4CCN(C5COC5)CC4)c(OCCO)c3)n2)n1"
  Hheps CL, mL/min/kg: 1.2
- MOLECULAR_STRING: "Nc1cncc(-c2cn3ccnc3c(Nc3ccc(N4CCN(CC(CO)CO)CC4)cc3)n2)n1"
  Hheps CL, mL/min/kg: 1.3

---

Test system: human hepatocytes
Assay: Human Hepatocyte Stability Assay
Format: in vitro ADME
Conditions: comparison table of Example 12; head prints "(units)", L/hr/kg per Example 11
# key: entry, value: Hheps CL
OBSERVABLE: Hheps CL

- MOLECULE: "Nc1cncc(-c2cn3ccnc3c(Nc3ccc(N4CCOCC4)cc3)n2)c1 [reference compound]"
  RESULT: "11.3 mL/min/kg"
- MOLECULE: "Cc1c(-c2cncc(N)n2)nc(Nc2ccc(N3CCN(C4COC4)CC3)cc2)c2nccn12"
  RESULT: "1.3 mL/min/kg"
- MOLECULE: "COc1ccc(Nc2nc(-c3ccc(N)nc3)cn3ccnc23)cc1OC [reference compound]"
  RESULT: "15 mL/min/kg"
- MOLECULE: "Nc1cncc(-c2cn3ccnc3c(Nc3ccc(N4CCN(CC(CO)CO)CC4)cc3)n2)n1"
  RESULT: "1.3 mL/min/kg"
